- Test system: Hs746t cells
- test-summary: Cell proliferation assay (CELL TITER-GLO)
- Assay type: cell-based
- test-conditions: Homo sapiens, 120 h, 5 days exposure, n=2, read-out: IC50 in vitro Hs746t cell proliferation
pIC50: −log10 of the molar value.
measurement-label: pIC50

Cc1ccc(C(=O)Nc2ccc(Oc3cc4cnn(C)c4cc3-c3cn[nH]c3)c(F)c2)c(=O)n1-c1ccc(F)cc1    7.48

Taken from patent US20210145811A1.
